Procedure summary: chemical genetic growth profiling, strain panel (AID 1159580);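 also: tested at 20 µM; growth read once vehicle control cultures reached saturation at 30 °C; 1 = growth at the plate median or of vehicle wells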
Study conditions: S. cerevisiae deletion strains, growth OD, locus YMR307W, strain GAS1, stronger effect = lower value
Out of some 5,500 compounds screened, about 2,000 (36%) were called active. Not shown: some 18% with an inconclusive outcome. Some of the results follow.
Measured quantity: normalized growth
Respond using a number only.

Enquiry: Report normalized growth for CC(C(=O)O)c1ccc2c(c1)[nH]c1ccc(Cl)cc12 (stereo not given)
Return: 0.996

Enquiry: Quickly give me recorded normalized growth for CC1(O)/C=C/C=C(\CO)C2CC(C)(C)C2(O)CC1 (stereo not given)
Return: 1.02

Enquiry: Quote normalized growth reported for C[C@H](NC(=O)/C(C#N)=C/c1ccc(O)c(O)c1)c1ccccc1 please.
Return: 1.02

Enquiry: Input CC(C)N(C(=O)CCl)c1ccccc1 , output reported normalized growth.
Return: 0.99

Enquiry: Check the records and state normalized growth for N#CC(Cc1ccc(O)c(O)c1)C(=O)N1CCc2ccccc21 (stereo not given)
Return: 0.986

====

Procedure summary: chemical genetic growth profiling, strain panel (AID 1159580);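 also: tested at 20 µM; growth read once vehicle control cultures reached saturation at 30 °C; 1 = growth at the plate median or of vehicle wells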
Study conditions: S. cerevisiae deletion strains, growth OD, locus YMR058W, strain fet3, stronger effect = lower value
In all, about 5,500 compounds went through this assay and about 2,000 (36%) were called active. Roughly 18% stayed inconclusive and do not appear here. The list shows a part of the results.
Checkbox rule: normalized growth lower than 1 = 1 (yes); normalized growth not lower than 1 = 0 (no).

Enquiry: For CC(C)(N=NC(C)(C)C(=N)N)C(=N)N , is the recorded normalized growth below the cut-off of 1?
Return: 0 (no)

Enquiry: Find out if reported normalized growth for S=C=NCc1ccccc1 is less than 1
Return: 1 (yes)

====

Procedure summary: chemical genetic growth profiling, strain panel (AID 1159580);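 also: tested at 20 µM; growth read once vehicle control cultures reached saturation at 30 °C; 1 = growth at the plate median or of vehicle wells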
Study conditions: S. cerevisiae deletion strains, growth OD, locus YJL095W, strain BCK1 (second series), stronger effect = lower value
In all, about 5,500 compounds went through this assay and about 2,000 (36%) were called active. About 18% were inconclusive and are not listed. This is one part of the list.
Measured quantity: normalized growth
Could you keep your reply to the number by itself?

CC(C)(CO)C(O)C(=O)NCCCO (stereo unspecified)	1.01
O=C1CC(c2ccc(O)c(O)c2)Oc2cc(O)cc(O)c21 (stereo unspecified)	1
CC(=O)O[C@H]1C(=O)[C@@]2(C)C([C@H](OC(=O)c3ccccc3)[C@]3(O)C[C@H](OC(=O)[C@H](O)[C@@H](NC(=O)c4ccccc4)c4ccccc4)C(C)=C1C3(C)C)[C@]1(OC(C)=O)CO[C@@H]1C[C@@H]2O (stereo partly specified)	1

Enquiry: Check the records and state normalized growth for CC(=O)CC(=O)CCC(=O)O
Return: 1.02

Enquiry: Could you please provide reported normalized growth for c1ccc(CN(CC2=NCCN2)c2ccccc2)cc1 ? Thanks!
Return: 1.01

Enquiry: Consider the compound Cc1cccc(Nc2cc(Cl)nc(SCC(=O)O)n2)c1C and give its recorded normalized growth.
Return: 0.987

Enquiry: Identify the reported normalized growth for the following entry. CC(=O)[C@H]1CCC2C3C[C@H](C)C4=CC(=O)CC[C@]4(C)C3[C@@H](O)C[C@@]21C (stereo partly specified)
Return: 0.982

Enquiry: Name the recorded normalized growth of the item CCC1(c2ccccc2)C(=O)NCNC1=O in your answer.
Return: 1.01

====

Listed next: entries and their corresponding normalized growth.
Procedure summary: chemical genetic growth profiling, strain panel (AID 1159580);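 also: tested at 20 µM; growth read once vehicle control cultures reached saturation at 30 °C; 1 = growth at the plate median or of vehicle wells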
Study conditions: S. cerevisiae deletion strains, growth OD, locus YJL166W, strain qcr8, stronger effect = lower value
The whole screen tested about 5,500 compounds, of which about 2,000 (36%) were called active. Inconclusive results (about 18%) are left out. This is one part of the list.
Number only, please.

Please review the following examples before continuing.
COc1cc(O)c2c(=O)cc(C)oc2c1CC=C(C)C	0.967
CC(C)[N+](C)(CCOC(=O)C1c2ccccc2Oc2ccccc21)C(C)C	0.98
CC[C@H]1OC(=O)C[C@@H](O)[C@H](C)[C@@H](O[C@@H]2O[C@H](C)[C@@H](O[C@H]3C[C@@](C)(O)[C@@H](O)[C@H](C)O3)[C@H](N(C)C)[C@H]2O)[C@@H](CC=O)C[C@@H](C)C(=O)/C=C/C(C)=C/[C@@H]1CO[C@@H]1O[C@H](C)[C@@H](O)[C@@H](OC)[C@H]1OC	0.991
O=[N+]([O-])O[C@H]1CO[C@H]2[C@@H]1OC[C@H]2O[N+](=O)[O-]	0.984
CCCCCC(=O)O[C@]1(C(C)=O)CCC2C3CCC4=CC(=O)CC[C@]4(C)C3CC[C@@]21C (some centres not stated)	1
COC(=O)COc1cc(Cl)c(Cl)cc1Cl	0.995

Enquiry: Specify normalized growth for CC(=O)O[C@@](C)(CCC=C(C)C)C1CC=C(C)CC1 (some centres not stated) and stop.
Return: 0.983
